The binders listed here are annotated with their Kd.
# assayed.system: T1, PUF4 RNA-binding domain (Saccharomyces cerevisiae, UniProt P25339 537-888)
# T1 sequence: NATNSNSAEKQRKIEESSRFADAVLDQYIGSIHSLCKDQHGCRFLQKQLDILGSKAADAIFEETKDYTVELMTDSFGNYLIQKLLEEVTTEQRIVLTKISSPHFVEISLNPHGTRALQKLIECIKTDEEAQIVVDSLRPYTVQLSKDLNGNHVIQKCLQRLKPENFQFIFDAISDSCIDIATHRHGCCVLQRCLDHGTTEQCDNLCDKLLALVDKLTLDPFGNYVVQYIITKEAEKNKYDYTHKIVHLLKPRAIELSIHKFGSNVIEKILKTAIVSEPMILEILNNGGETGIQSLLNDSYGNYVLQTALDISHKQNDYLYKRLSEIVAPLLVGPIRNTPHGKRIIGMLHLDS
# assay.details: Mg; RNA-MaP; 20 mM Na-HEPES pH 7.4, 30 mM KOAc, 0.75 mM MgCl2, 0.1% Tween-20, 5% glycerol, 0.1 mg/mL BSA, 2 mM DTT; 25 C; 0.0125-409.6 nM protein
# condition.notes: tags: N-His6-TEV cleaved; C-SNAP kept, Cy3B-labelled; label: tethered on chip by stalled RNA polymerase
metric: Kd (nM)

binder	value.units	modifier.sign	quantitative.readout
Ie_S2_P5E.1_K5.1_C5.1_H5.1_A5.1_[+7TTCCT]_F5.1_T5.1 (ssRNA) RNA: UUUGAUUAAUAUGAUAUCGUUCUUUCUUGUAUUAUUCCUUUAUUCUUUCUCGAUAUCAUAUUAAUCUUU	nM	=	7.84
ACAAACUGGAGAUAACAAAC (ssRNA) [Ib_S3_P3E.1_K3.1_C3.1_H3.1_[T3G]_A3.1_[T5G]_F3.1_T3.1]	nM	>	2300
UCUCUUUGUAUUGUUAUCUCUU (ssRNA) [Ia_S1_P5E.1_K5.1_C5.1_H5.1_A5.1_[A7G]_F5.1_T5.1]	nM	=	11.2
UCUCUUUGUAUACCCUUAUCUCUU (ssRNA) [Ie_S1_P4E.1_K4.1_C4.1_H4.1_A4.1_[+6CCC]_F4.1_T4.1]	nM	=	35.3
UCUCUUUGUAAAAGCUCUCUU (ssRNA) [Ic_S1_P4E.1_K4.1_C4.1_H4.1_A4.1_[T5A]_[T7A]_F4.1_[T8G]_[A9C]_T4.1]	nM	=	2280
Ic_S4_P4E.1_K4.1_C4.1_H4.1_A4.1_[T5C]_[A6T]_[T7G]_F4.1_T4.1 (ssRNA) RNA: UUUGACAACUGAUCGUUCUUUCUUGUACUGUAUUCUUUCUCGAUCAGUUGUCUUU	nM	=	3.86
UCUCUUUGUACCGUGUCUCUU (ssRNA) [Ic_S1_P4E.1_K4.1_C4.1_H4.1_A4.1_[T5C]_[A6C]_[T7G]_F4.1_[A9G]_T4.1]	nM	=	515
Ic_S2_P5E.1_K5.1_C5.1_H5.1_A5.1_[T5C]_[T6A]_F5.1_[T9A]_T5.1 (ssRNA) RNA: UUUGAUUAAUAUGAUAUCGUUCUUUCUUGUACAAUAAUUCUUUCUCGAUAUCAUAUUAAUCUUU	nM	=	0.983
Ic_S4_P3E.1_K3.1_C3.1_H3.1_A3.1_[T5A]_[A6C]_F3.1_[T7G]_[A8T]_T3.1 (ssRNA) RNA: UUUGACAACUGAUCGUUCUUUCUUGUAACGUUUCUUUCUCGAUCAGUUGUCUUU	nM	=	270
UCUCUUUGUAUCAUGAUCUCUU (ssRNA) [Ib_S1_P5E.1_K5.1_C5.1_H5.1_A5.1_[T6C]_F5.1_[T9G]_T5.1]	nM	=	24.9
Id_iii_S4_P5E.5_K5.1_C5.3_H5.1_A5.1_F5.1_T5.2_[A12C] (ssRNA) RNA: UUUGACAACUGAUCGUUCUUUCUUCUUGUAUUAUUAUCUUCUUUCUCGAUCAGUUGUCUUU	nM	=	1.71
Id_ii_S2_P3E.3_K3.2_C3.2_[C-2G]_[T-1C]_H3.2_A3.1_F3.1_T3.2_[A10T] (ssRNA) RNA: UUUGAUUAAUAUGAUAUCGUUCUUUCUGCUAUAUAUAUUUUCUUUCUCGAUAUCAUAUUAAUCUUU	nM	=	86.4
